Target: RORγt (Homo sapiens)
Sequence (P51449 1-497 isoform P51449-2, species assumed): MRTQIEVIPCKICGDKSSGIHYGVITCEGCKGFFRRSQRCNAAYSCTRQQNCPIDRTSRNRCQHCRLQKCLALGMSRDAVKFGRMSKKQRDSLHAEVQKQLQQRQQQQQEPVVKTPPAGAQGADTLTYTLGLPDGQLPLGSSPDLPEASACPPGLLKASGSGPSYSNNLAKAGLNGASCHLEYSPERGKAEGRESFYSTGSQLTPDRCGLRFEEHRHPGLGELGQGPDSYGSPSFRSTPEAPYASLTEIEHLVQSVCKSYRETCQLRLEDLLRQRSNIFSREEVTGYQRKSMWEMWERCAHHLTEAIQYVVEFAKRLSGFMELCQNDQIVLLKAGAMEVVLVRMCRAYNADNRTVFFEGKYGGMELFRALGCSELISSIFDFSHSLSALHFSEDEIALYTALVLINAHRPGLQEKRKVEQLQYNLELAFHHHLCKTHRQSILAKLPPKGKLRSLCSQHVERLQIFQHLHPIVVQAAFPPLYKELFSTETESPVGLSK
Test: RORγt binding test using fluorescent-labeled cholesterol (TR-FRET)
Details: read-out: Binding inhibitory rate of fluorescent-labeled cholesterol to RORγt at test compound 1 μM (%)
readout-label: inhibition at 1 µM (%)
The reply should be a number in %, with the unit left off.

Worked cases, answers included:
- compound: "CCOCC(C)(C)c1c(F)cc(NC(=O)[C@H]2c3ccc(OC)cc3CCN2C(=O)CCCC(=O)O)cc1F"
  inhibition at 1 µM, %: 101
- compound: "COc1ccc2c(c1)CCN(C(=O)c1cc(O)no1)C2C(=O)Nc1ccc(C(C)(C)C)c(Cl)c1 (stereo not shown)"
  inhibition at 1 µM, %: 98.9
- compound: "CC[Si](C)(C)c1c(F)cc(NC(=O)[C@H]2c3ccc(OC)nc3CCN2C(=O)Cc2cc(O)no2)cc1F"
  inhibition at 1 µM, %: 104

Now examine the next entry.
Prompt line: Complete the entry with inhibition at 1 µM for "COCC(C)(C)c1ccc(NC(=O)[C@H]2c3ccc(OC)cc3CCN2C(=O)c2cc(O)no2)cc1F"
Response line: 102
